read-out: Cytochrome P450 (CYP1A2), CYP1A2 (gene 1544); assay: LTEA_HepaRG_CYP1A2: Life Technologies and Expression Analysis (LTEA) Assay for Cytochrome P450 (CYP1A2) using HepaRG (AID 2283479); details: mRNA level, 48 h; actives raise or lower the signal
Calls of active or inactive are those of the source. The calls were made as follows: active = hit-call score of the fitted dose curve at least 0.9, where 1 is the maximum; inactive = score below 0.9.
A correct response names exactly one class from T = active, F = inactive

Example entries and their recorded answers appear below.
O=C(CCCN1CCC(O)(c2ccc(Cl)cc2)CC1)c1ccc(F)cc1 | T
CCC(C)c1ccccc1O (stereo not drawn) | F
Cc1[nH]nc2c1N=C(c1ccccc1Cl)c1cc([N+](=O)[O-])ccc1N2 | T
CCCCC=O | F
CCCCCCCCCCCCCCC | F

Query :: # fetch the recorded call for CN(Cc1cnc2nc(N)nc(N)c2n1)c1ccc(C(=O)N[C@@H](CCC(=O)O)C(=O)O)cc1 here
Result :: T

Query :: # fetch the recorded call for CC(=O)Nc1ccc(O)cc1 here
Result :: F

Query :: # fetch the recorded call for CCCCCCCCCCCCOS(=O)(=O)O here
Result :: T

Hey, just so you know, these numbers are from PubChem BioAssay (EPA / NIEHS).
